# TARGET SYSTEM: UniProt:P49841
# Sequence (P49841 whole entry): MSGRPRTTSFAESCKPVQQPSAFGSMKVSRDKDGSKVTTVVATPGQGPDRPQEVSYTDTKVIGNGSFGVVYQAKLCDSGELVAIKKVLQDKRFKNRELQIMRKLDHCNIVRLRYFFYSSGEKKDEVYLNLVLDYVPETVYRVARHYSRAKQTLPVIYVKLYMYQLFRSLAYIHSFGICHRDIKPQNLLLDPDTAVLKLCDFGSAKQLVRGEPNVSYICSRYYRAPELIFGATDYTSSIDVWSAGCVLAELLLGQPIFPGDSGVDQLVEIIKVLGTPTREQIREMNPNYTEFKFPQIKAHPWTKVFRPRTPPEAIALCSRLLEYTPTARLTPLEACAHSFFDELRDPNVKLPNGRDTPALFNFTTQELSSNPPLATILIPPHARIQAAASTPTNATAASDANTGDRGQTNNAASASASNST
# ASSAY COMMENT: GSK3b TR-FRET kinase assay
# Assay type: biochemical
# STATED CONDITIONS: 1 nM GSK3b, 2 μM ATP, 30 minute preincubation; read-out: GSK3-B TR-FRET BIOCHEMICAL (TR-FRET); IC50
pIC50: −log10 of the molar value.
Below, each entry is listed with its recorded pIC50.
READOUT: pIC50

CCC1(c2cccc(-c3ccncc3C)c2)C2=C(CC(C)(C)NC2=O)Nc2n[nH]cc21 (stereo not shown); ≥ 7.00
CC1(C)CC(=O)C2=C(C1)Nc1n[nH]cc1C21COC2(CN(C(=O)C3(F)CC3)C2)C1 (stereo not shown); ≥ 7.00
CC1(C)CC(=O)C2=C(C1)Nc1n[nH]cc1C21COC2(CN(C(=O)CC3CCC3)C2)C1 (stereo not shown); ≥ 7.00
CC[C@]1(c2cccc(C(F)(F)F)c2)C2=C(CCN(C)C2=O)Nc2n[nH]cc21; < 5.30

====

# TARGET SYSTEM: GSK3α (GST-full length GSK3α) (Homo sapiens (Human))
# Sequence (P49840 whole entry): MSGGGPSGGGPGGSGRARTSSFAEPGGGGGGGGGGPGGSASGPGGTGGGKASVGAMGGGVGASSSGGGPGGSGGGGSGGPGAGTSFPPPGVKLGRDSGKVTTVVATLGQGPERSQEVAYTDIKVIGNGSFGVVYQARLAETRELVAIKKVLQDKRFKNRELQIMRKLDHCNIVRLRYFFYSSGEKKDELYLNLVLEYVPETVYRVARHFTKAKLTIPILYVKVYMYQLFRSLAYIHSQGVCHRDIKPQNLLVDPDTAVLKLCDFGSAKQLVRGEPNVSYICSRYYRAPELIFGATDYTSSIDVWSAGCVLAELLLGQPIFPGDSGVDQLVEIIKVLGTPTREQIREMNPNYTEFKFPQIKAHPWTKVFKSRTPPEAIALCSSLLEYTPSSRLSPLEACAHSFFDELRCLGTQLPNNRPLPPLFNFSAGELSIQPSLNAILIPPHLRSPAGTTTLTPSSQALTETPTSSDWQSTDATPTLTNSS
# ASSAY COMMENT: GSK3α TR-FRET kinase assay
# Format: biochemical
# STATED CONDITIONS: 1 nM GSK3α, 4 μM ATP, 30 minute preincubation; read-out: GSK3-A TR-FRET BIOCHEMICAL (TR-FRET); IC50
pIC50: −log10 of the molar value.
READOUT: pIC50

C[C@H]1C[C@@H]2C[C@]3(C[C@@H]2C1)C1=C(CC(C)(C)CC1=O)Nc1n[nH]cc13; ≥ 7.00
C[C@@H]1C[C@@H]2C[C@]3(C[C@@H]2C1)C1=C(CC(C)(C)CC1=O)Nc1n[nH]cc13; ≥ 7.00
CC[C@]1(c2cccc(C(F)(F)F)c2)C2=C(Nc3n[nH]cc31)[C@@H](C)CN(C)C2=O; < 5.30
CC1(C)CC(=O)C2=C(C1)Nc1n[nH]cc1C21COC2(CN(C(=O)CC3CC3)C2)C1 (stereo not drawn); ≥ 7.00
CC1(C)CC2=C(C(=O)N1)C1(CCN(S(=O)(=O)c3ccc(F)cc3)CC1)c1c[nH]nc1N2; ≥ 7.00
CC(=O)N1C[C@@]2(C[C@]3(CO2)C2=C(CC(C)(C)CC2=O)Nc2n[nH]cc23)[C@@H]1C; ≥ 7.00
CCC1(c2cccc(N3CCOCC3)c2)C2=C(CC(C)(C)NC2=O)Nc2n[nH]cc21 (stereo not drawn); 5.30 to 6.00
CCC1(c2cccc(-c3cc(C)nn3C)c2)C2=C(CC(C)(C)NC2=O)Nc2[nH]ncc21 (stereo not drawn); ≥ 7.00
CC1(C)CC(=O)C2=C(C1)Nc1n[nH]cc1C21COC2(CN(C(=O)C3CCOCC3)C2)C1 (stereo not drawn); ≥ 7.00
CC1(C)CC(=O)C2=C(C1)Nc1n[nH]cc1[C@]21COC2(CN(C(=O)Cc3ccccc3)C2)C1; 6.00 to 7.00
CCC1(c2cccc(C(F)(F)F)c2)C2=C(Nc3n[nH]cc31)C(C)NC2=O (stereo not drawn) [Compound 945379]; 6.00 to 7.00
CCC1(c2cccc(C(F)(F)F)c2)C2=C(CC(c3ccccc3)NC2=O)Nc2n[nH]cc21 (stereo not drawn) [Compound 945363]; 5.30 to 6.00
CCC1(c2cccc(C(F)(F)F)c2)C2=C(CCN(c3ccc(OC)cc3)C2=O)Nc2n[nH]cc21 (stereo not drawn); ≥ 7.00
CC[C@@]1(c2cccc(C(F)(F)F)c2)C2=C(CC3(CCC3)NC2=O)Nc2n[nH]cc21; ≥ 7.00
CCC1(c2cccc(-c3ccnc(C)c3C)c2)C2=C(CC(C)(C)NC2=O)Nc2n[nH]cc21 (stereo not drawn); ≥ 7.00
